B1: Far upstream element-binding protein 2, residues 142 to 214; numbered along this chain, Q92945 (parent)
chain: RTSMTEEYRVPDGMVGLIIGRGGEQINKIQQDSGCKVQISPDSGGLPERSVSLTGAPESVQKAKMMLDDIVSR

variants of: B1; test: abundance fitness (aPCA) (normalised: wild type 0, dead -1); higher = more abundant; growth selection in yeast, the domain comes from the species named; settings: Homo sapiens
Please note: fulfilled applies when abundance fitness is -0.3 or greater, and not fulfilled applies otherwise.

Prompt: Determine whether this variant has abundance fitness no lower than -0.3: "E48Y"
Completion: fulfilled

Prompt: Determine whether this variant has abundance fitness no lower than -0.3: "E58W"
Completion: not fulfilled

Prompt: Determine whether this variant has abundance fitness no lower than -0.3: "S33L"
Completion: not fulfilled

Prompt: Determine whether this variant has abundance fitness no lower than -0.3: "P41A"
Completion: fulfilled

Prompt: Determine whether this variant has abundance fitness no lower than -0.3: "D42T"
Completion: fulfilled

Prompt: Determine whether this variant has abundance fitness no lower than -0.3: "K36P"
Completion: not fulfilled

Prompt: Determine whether this variant has abundance fitness no lower than -0.3: "G23Q"
Completion: fulfilled

Values were extracted from the Human Domainome abundance scans (Beltran et al. 2025).
